The reported measurements were obtained from patent US9758529B2.

system: mice; assay: Neuropharmacological Assay (SmartCube); assay type: in vivo; settings: i.p. 15 min before behavioral test; 3 doses, most efficacious dose(s) presented
Where a name gives a salt, the structure may show the parent alone.
METRIC: HA: hallucinogen (probability of class match)

[
  {
    "COMPOUND": "CNCC1OCCCn2nc3ccccc3c21.Cl (stereo not shown) [Compound 51]",
    "OBSERVED MEASUREMENT": "+ (LOQ≦ + <5%)"
  },
  {
    "COMPOUND": "CCNCC1OCCCn2nc3ccccc3c21.Cl (stereo not shown) [Compound 57]",
    "OBSERVED MEASUREMENT": "+ (LOQ≦ + <5%)"
  },
  {
    "COMPOUND": "c1ccc2c3n(nc2c1)CCOC3CNC1CCC1 (stereo not shown) [Compound 16]",
    "OBSERVED MEASUREMENT": "+ (LOQ≦ + <5%)"
  },
  {
    "COMPOUND": "c1ccc2c3n(nc2c1)CCOC3[C@@H]1CCN1 (stereo partly shown) [Compound 64]",
    "OBSERVED MEASUREMENT": "+ (LOQ≦ + <5%)"
  },
  {
    "COMPOUND": "Cl.c1ccc2c3n(nc2c1)CCOC3[C@H]1CNCCO1 (stereo partly shown) [Compound 42]",
    "OBSERVED MEASUREMENT": "+ (LOQ≦ + <5%)"
  },
  {
    "COMPOUND": "Cl.NCC1OCCn2nc3ccsc3c21 (stereo not shown) [Compound 60]",
    "OBSERVED MEASUREMENT": "+ (LOQ≦ + <5%)"
  },
  {
    "COMPOUND": "CN1CCC2(CC1)OCCn1nc3ccccc3c12.Cl [Compound 24]",
    "OBSERVED MEASUREMENT": "+ (LOQ≦ + <5%)"
  },
  {
    "COMPOUND": "CN1CCO[C@@H]([C@H]2OCCn3nc4ccccc4c32)C1 [Compound 26]",
    "OBSERVED MEASUREMENT": "+ (LOQ≦ + <5%)"
  },
  {
    "COMPOUND": "CN1CCC[C@H]1C1OCCn2nc3ccccc3c21 (stereo partly shown) [Compound 14, hydrochloride]",
    "OBSERVED MEASUREMENT": "+ (LOQ≦ + <5%)"
  }
]

* * *

system: mice; assay: Neuropharmacological Assay (SmartCube); assay type: in vivo; conditions: i.p. 15 min before behavioral test; 3 doses, most efficacious dose(s) presented
METRIC: DP: anti-depressant (probability of class match)

[
  {
    "MOLECULE": "CC(C)NCC1OCCn2nc3ccccc3c21 (stereo not shown)",
    "OBSERVED MEASUREMENT": "++ (5%≦ ++ <25%)"
  },
  {
    "MOLECULE": "Cl.c1ccc2c3n(nc2c1)CCO[C@@H]3[C@@H]1COCCN1 (racemic)",
    "OBSERVED MEASUREMENT": "+ (LOQ≦ + <5%)"
  },
  {
    "MOLECULE": "C[C@H](N)[C@H]1OCCn2nc3ccccc3c21 (relative stereo)",
    "OBSERVED MEASUREMENT": "++ (5%≦ ++ <25%)"
  },
  {
    "MOLECULE": "NCC1OCCn2nc3ccccc3c21 (stereo not shown)",
    "OBSERVED MEASUREMENT": "++ (5%≦ ++ <25%)"
  },
  {
    "MOLECULE": "CCN(C)C[C@@H]1OCCn2nc3ccccc3c21.Cl",
    "OBSERVED MEASUREMENT": "++ (5%≦ ++ <25%)"
  },
  {
    "MOLECULE": "CN1CCC2(CC1)OCCn1nc3ccccc3c12.Cl",
    "OBSERVED MEASUREMENT": "++ (5%≦ ++ <25%)"
  },
  {
    "MOLECULE": "CCN(C)C[C@H]1OCCn2nc3ccccc3c21.Cl",
    "OBSERVED MEASUREMENT": "++++ (50%≦ ++++)"
  },
  {
    "MOLECULE": "CNC[C@@H]1OCCn2nc3ccsc3c21",
    "OBSERVED MEASUREMENT": "++++ (50%≦ ++++)"
  },
  {
    "MOLECULE": "CN1CC(C2OCCn3nc4ccccc4c32)C1.Cl (stereo not shown)",
    "OBSERVED MEASUREMENT": "++ (5%≦ ++ <25%)"
  },
  {
    "MOLECULE": "Cl.c1ccc2c3n(nc2c1)CCOC3[C@H]1CCCNC1 (stereo partly shown)",
    "OBSERVED MEASUREMENT": "+ (LOQ≦ + <5%)"
  }
]
